These measurements were taken from the supplement of paper PMC11061612.

Tested on: KALS-1 (Glioblastoma)
Test: combination Emax (second highest fraction inhibited in the dose matrix, 72 h); higher = more inhibition; extreme values may be limits of the assay
value_kind: combination Emax
// no unit, no text: just the number

compound	combination Emax
CN(C)CCCOc1ccc(-c2ccc3ncc4c(c3c2)n(C2CCOCC2)c(=O)n4C)cn1 [AZD0156] + O=C(c1cc(Cc2n[nH]c(=O)c3ccccc23)ccc1F)N1CCN(C(=O)C2CC2)CC1 [Olaparib] (first compound max 3 µM, partner max 3 µM)	0.135
NC1(C(=O)N[C@@H](CCO)c2ccc(Cl)cc2)CCN(c2ncnc3[nH]ccc23)CC1 [Capivasertib] + CCN(CCO)CCCOc1ccc2c(Nc3cc(CC(=O)Nc4cccc(F)c4)[nH]n3)ncnc2c1 [AZD2811] (first compound max 10 µM, 7x7, partner max 1 µM)	0.495
O=C(c1cc(Cc2n[nH]c(=O)c3ccccc23)ccc1F)N1CCN(C(=O)C2CC2)CC1 [Olaparib] + COc1nnc2ccc(N3CCC(c4ccc(OCCN5CCN(C)C(=O)[C@H]5C)cc4)CC3)nn12 [AZD5153] (first compound max 10 µM, 7x7, partner max 1 µM)	0.548

For the next question, use this compound.
Problem: For the compound shown here, NC1(C(=O)N[C@@H](CCO)c2ccc(Cl)cc2)CCN(c2ncnc3[nH]ccc23)CC1 [Capivasertib] + C[C@@H]1COCCN1C2=NC(=NC(=C2)C3(CC3)[S@](=N)(=O)C)C4=C5C=CNC5=NC=C4 [AZD6738] (first compound max 10 µM, 7x7, partner max 10 µM) , give the reported combination Emax.
Result: 0.784

---

Tested on: OVCAR-3 (Ovarian Carcinoma)
Assay: combination Emax (second highest fraction inhibited in the dose matrix, 72 h); higher = more inhibition; extreme values may be limits of the assay
Each entry gets condition not met if its combination Emax stays under 0.4, and condition met if its combination Emax is 0.4 or above.

compound	label_class
CN(C)CCCOc1ccc(-c2ccc3ncc4c(c3c2)n(C2CCOCC2)c(=O)n4C)cn1 [AZD0156] + CCN(CCO)CCCOc1ccc2c(Nc3cc(CC(=O)Nc4cccc(F)c4)[nH]n3)ncnc2c1 [AZD2811] (first compound max 1 µM, 7x7, partner max 1 µM)	condition not met
COc1nnc2ccc(N3CCC(c4ccc(OCCN5CCN(C)C(=O)[C@H]5C)cc4)CC3)nn12 [AZD5153] + Cn1cnc2c(F)c(Nc3ccc(Br)cc3Cl)c(C(=O)NOCCO)cc21 [Selumetinib] (first compound max 1 µM, 7x7, partner max 10 µM)	condition met
CN(CCO)CC[C@H](CSc1ccccc1)Nc1ccc(S(=O)(=O)NC(=O)c2ccc(N3CCC([C@@H](O)c4ccccc4-c4ccc(Cl)cc4)CC3)cc2)cc1S(=O)(=O)C(F)(F)F [AZD4320] + Cn1cnc2c(F)c(Nc3ccc(Br)cc3Cl)c(C(=O)NOCCO)cc21 [Selumetinib] (first compound max 1 µM, 7x7, partner max 3 µM)	condition met
COc1cccc2c1C(=O)c1c(O)c3c(c(O)c1C2=O)C[C@@](O)(C(=O)CO)C[C@@H]3O[C@H]1C[C@H](N)[C@H](O)[C@H](C)O1 [Doxorubicin] + Cc1cc2ncnn2cc1Nc1ncc2c(n1)n(C1CCOCC1)c(=O)n2C [AZD7648] (first compound max 1 µM, 7x7, partner max 10 µM)	condition met
Cc1cc2ncnn2cc1Nc1ncc2c(n1)n(C1CCOCC1)c(=O)n2C [AZD7648] + C[C@@H]1COCCN1C2=NC(=NC(=C2)C3(CC3)[S@](=N)(=O)C)C4=C5C=CNC5=NC=C4 [AZD6738] (first compound max 10 µM, 7x7, partner max 10 µM)	condition not met
CN(CCO)CC[C@H](CSc1ccccc1)Nc1ccc(S(=O)(=O)NC(=O)c2ccc(N3CCC([C@@H](O)c4ccccc4-c4ccc(Cl)cc4)CC3)cc2)cc1S(=O)(=O)C(F)(F)F [AZD4320] + C=CCn1c(=O)c2cnc(Nc3ccc(N4CCN(C)CC4)cc3)nc2n1-c1cccc(C(C)(C)O)n1 [AZD1775] (first compound max 1 µM, partner max 1 µM)	condition met
C=CCn1c(=O)c2cnc(Nc3ccc(N4CCN(C)CC4)cc3)nc2n1-c1cccc(C(C)(C)O)n1 [AZD1775] + C1CN(CCC1(C(=O)N[C@@H](CCO)C2=CC=C(C=C2)Cl)N)C3=NC=NC4=C3C=CN4 [Capivasertib] (first compound max 3 µM, partner max 3 µM)	condition met
CC(=O)Nc1cccc(-n2c(=O)n(C3CC3)c(=O)c3c(Nc4ccc(I)cc4F)n(C)c(=O)c(C)c32)c1 [Trametinib] + Cc1nc(-c2cn3c(n2)-c2ccc(-c4cnn(C(C)(C)C(N)=O)c4)cc2OCC3)n(C(C)C)n1 [Taselisib] (first compound max 1 µM, 7x7, partner max 10 µM)	condition met

// next entry
Problem: Is the recorded value of combination Emax equal to or greater than 0.4 for this compound? C[C@@H](c1ccc2nccn2c1)n1nnc2ncc(-c3cnn(C)c3)nc21 [Savolitinib] + CC1(C)CCC(CN2CCN(c3ccc(C(=O)NS(=O)(=O)c4ccc(NCC5CCOCC5)c([N+](=O)[O-])c4)c(Oc4cnc5[nH]ccc5c4)c3)CC2)=C(c2ccc(Cl)cc2)C1 [Venetoclax] (first compound max 1 µM, 7x7, partner max 1 µM)
Result: condition not met

---

System: NCI-H226 (Mesothelioma);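 note: after 72 h of two-drug dosing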
Experiment: Bliss excess, mean over the matrix (fraction); higher = more synergy
Give MET when the value for Bliss excess is at least -0.07. Give NOT MET when it is less.

A selection of reference data follows.
compound	label_class
CC1(C)CCC(CN2CCN(c3ccc(C(=O)NS(=O)(=O)c4ccc(NCC5CCOCC5)c([N+](=O)[O-])c4)c(Oc4cnc5[nH]ccc5c4)c3)CC2)=C(c2ccc(Cl)cc2)C1 [Venetoclax] + C1CN(CCC1(C(=O)N[C@@H](CCO)C2=CC=C(C=C2)Cl)N)C3=NC=NC4=C3C=CN4 [Capivasertib] (first compound max 1 µM, 7x7, partner max 3 µM)	MET
CN(CCO)CC[C@H](CSc1ccccc1)Nc1ccc(S(=O)(=O)NC(=O)c2ccc(N3CCC([C@@H](O)c4ccccc4-c4ccc(Cl)cc4)CC3)cc2)cc1S(=O)(=O)C(F)(F)F [AZD4320] + CS(=O)(=O)CCNCc1ccc(-c2ccc3ncnc(Nc4ccc(OCc5cccc(F)c5)c(Cl)c4)c3c2)o1 [Lapatinib] (first compound max 1 µM, 7x7, partner max 10 µM)	MET
COc1cc2c(cc1OCCCCCOc1cc3c(cc1OC)C(=O)N1C=C(C)C[C@H]1C=N3)N=C[C@@H]1CC(C)=CN1C2=O [SG3199] + O=C(c1cc(Cc2n[nH]c(=O)c3ccccc23)ccc1F)N1CCN(C(=O)C2CC2)CC1 [Olaparib] (first compound max 0.001 µM, 7x7, partner max 10 µM)	MET
Cc1cc2ncnn2cc1Nc1ncc2c(n1)n(C1CCOCC1)c(=O)n2C [AZD7648] + COc1cc([C@@H]2c3cc4c(cc3[C@@H](O[C@@H]3O[C@@H]5CO[C@@H](C)O[C@H]5[C@H](O)[C@H]3O)[C@H]3COC(=O)[C@H]23)OCO4)cc(OC)c1O [Etoposide] (first compound max 10 µM, 7x7, partner max 10 µM)	MET
CN(CCO)CC[C@H](CSc1ccccc1)Nc1ccc(S(=O)(=O)NC(=O)c2ccc(N3CCC([C@@H](O)c4ccccc4-c4ccc(Cl)cc4)CC3)cc2)cc1S(=O)(=O)C(F)(F)F [AZD4320] + C[C@@H]1COCCN1C2=NC(=NC(=C2)C3(CC3)[S@](=N)(=O)C)C4=C5C=CNC5=NC=C4 [AZD6738] (first compound max 1 µM, 7x7, partner max 10 µM)	NOT MET

Problem: Dear colleague, could you confirm whether NC1(C(=O)N[C@@H](CCO)c2ccc(Cl)cc2)CCN(c2ncnc3[nH]ccc23)CC1 [Capivasertib] + CCN(CCO)CCCOc1ccc2c(Nc3cc(CC(=O)Nc4cccc(F)c4)[nH]n3)ncnc2c1 [AZD2811] (first compound max 10 µM, 7x7, partner max 1 µM) has Bliss excess at or above -0.07?
Result: MET

Problem: Check the entry CC1(C)CCC(CN2CCN(c3ccc(C(=O)NS(=O)(=O)c4ccc(NCC5CCOCC5)c([N+](=O)[O-])c4)c(Oc4cnc5[nH]ccc5c4)c3)CC2)=C(c2ccc(Cl)cc2)C1 [Venetoclax] + Cn1cnc2c(F)c(Nc3ccc(Br)cc3Cl)c(C(=O)NOCCO)cc21 [Selumetinib] (first compound max 1 µM, 7x7, partner max 3 µM) : does Bliss excess equal or exceed -0.07?
Result: NOT MET

Problem: Has Cn1cnc2c(F)c(Nc3ccc(Br)cc3Cl)c(C(=O)NOCCO)cc21 [Selumetinib] + C=CCn1c(=O)c2cnc(Nc3ccc(N4CCN(C)CC4)cc3)nc2n1-c1cccc(C(C)(C)O)n1 [AZD1775] (first compound max 10 µM, partner max 1 µM) a recorded Bliss excess greater than or equal to -0.07?
Result: MET

Problem: Is reported Bliss excess greater than or equal to -0.07 here: N#Cc1cnc(Nc2cc(NC[C@H]3CNCCO3)c(C(F)(F)F)cn2)cn1 [SRA737] + C=CCn1c(=O)c2cnc(Nc3ccc(N4CCN(C)CC4)cc3)nc2n1-c1cccc(C(C)(C)O)n1 [AZD1775] (first compound max 10 µM, partner max 1 µM)
Result: MET

Problem: Bliss excess >= -0.07 for CC1(C)CCC(CN2CCN(c3ccc(C(=O)NS(=O)(=O)c4ccc(NCC5CCOCC5)c([N+](=O)[O-])c4)c(Oc4cnc5[nH]ccc5c4)c3)CC2)=C(c2ccc(Cl)cc2)C1 [Venetoclax] + C[C@@H](Nc1cc(F)cc(F)c1)c1cc(C(=O)N(C)C)cc2c(=O)cc(N3CCOCC3)oc12 [AZD8186] (first compound max 1 µM, 7x7, partner max 3 µM) ?
Result: MET

Problem: Form field: Bliss excess at least -0.07? Entry: CS(=O)(=O)CCNCc1ccc(-c2ccc3ncnc(Nc4ccc(OCc5cccc(F)c5)c(Cl)c4)c3c2)o1 [Lapatinib] + NC1(c2ccc(-c3nc4ccn5c(=O)[nH]nc5c4cc3-c3ccccc3)cc2)CCC1 [MK-2206] (first compound max 10 µM, 7x7, partner max 10 µM)
Result: MET

Problem: Hi, just wondering whether C=CCn1c(=O)c2cnc(Nc3ccc(N4CCN(C)CC4)cc3)nc2n1-c1cccc(C(C)(C)O)n1 [AZD1775] + C1CN(CCC1(C(=O)N[C@@H](CCO)C2=CC=C(C=C2)Cl)N)C3=NC=NC4=C3C=CN4 [Capivasertib] (first compound max 3 µM, partner max 3 µM) shows Bliss excess of -0.07 or higher.
Result: MET
